Source of measurements: patent US11661426B2

- TARGET_SYSTEM: ALK2 (Homo sapiens (Human))
READOUT_LABEL: IC50

// solved cases for IC50 follow
>>> df
                                   compound  readout_label  endpoint_value
0  NC(=O)c1ccc(-n2cnc(Nc3nc(N4CCC[C@H]4CO)nn4cccc34)c2)cc1 [Compound 93c]           IC50        < 100 nM
1  COc1cc(-n2cnc(Nc3nc(N4C[C@@H]5C[C@@H]5[C@H]4CO)c4cccn4n3)c2)cc(OC)c1OC [Compound 332b]           IC50        < 100 nM
2  COc1cc(-n2cnc(Nc3nc4c(c(N5CCC[C@H]5CO)n3)CS(=O)(=O)CC4)c2)cc(OC)c1OC [Compound 273c]           IC50        < 100 nM
3  COc1cc(-n2cnc(Nc3nc(N4CCC[C@H]4CO)c4cccn4n3)n2)cc(OC)c1OC [Compound 415d]           IC50  100 to 1000 nM
4  COc1cc(-n2cnc(Nc3nc(N4CCC[C@@H]4CO)nc4[nH]ccc34)c2)cc(OC)c1OC [Compound 308b]           IC50        < 100 nM

If you can, please state the reported IC50 value of COc1cc(-n2cnc(Nc3nc4c(c(N5CCC[C@H]5CO)n3)COCC4)c2)cc(OC)c1OC [Compound 343b] . < 100 nM

Again, but for OC[C@@H]1CCCN1c1nc(Nc2cn(C3CC3)cn2)c2cccn2n1 [Compound 26c] 100 to 1000 nM

Next up: COc1cc(-n2cnc(Nc3cc(C(=O)O)cc4ccoc34)c2)cc(OC)c1OC [Compound 411c] 100 to 1000 nM

====

- TARGET_SYSTEM: ALK2 (Homo sapiens (Human))
pIC50: −log10 of the molar value.
This listing pairs compounds with measured pIC50.

Worked set:
>>> df
                                   compound  endpoint_value
0  CC(=O)c1cccc(-n2cnc(Nc3nc(N4CCC[C@H]4CO)nn4cccc34)c2)c1 [Compound 47c]          > 7.00
1  COc1cc(-n2cnc(Nc3nc(N4CCCC4)nc4c3CCN(C(=O)OC(C)(C)C)C4)c2)cc(OC)c1OC [Compound 184a]          > 7.00
2  COc1ccc(-c2nc(Nc3cn(-c4cc(OC)c(OC)c(OC)c4)cn3)c3cccn3n2)cc1 [Compound 88a]          > 7.00
3  COc1cc(Cl)cc(-n2cnc(Nc3nc(N4CCC[C@H]4CO)nn4cccc34)c2)c1 [Compound 322b]          > 7.00
4  COc1cc(-n2cnc(Nc3nc(N4CCC[C@H]4C(N)=O)nn4c(CN5CCNCC5)ccc34)c2)cc(OC)c1OC [Compound 245c]          > 7.00
5  COc1cc(-n2cnc(Nc3nc(N4CCC[C@@H]4CO)nc4cc(C(F)(F)F)ccc34)c2)cc(OC)c1OC [Compound 293a]          > 7.00
6  COc1cc(-n2cnc(Nc3nc(N4CCC[C@H]4C(N)=O)c4ccccc4n3)c2)cc(OC)c1OC [Compound 204b]    6.00 to 7.00
7  COc1cc(-n2cnc(Nc3nc(N4CCC[C@@H]4CO)c4sccc4n3)c2)cc(OC)c1OC [Compound 310b]          > 7.00

Continue with the compound presented below.
Param item = Cn1cnc(Nc2nc(N3CCN(C(=O)Cc4ccccc4)CC3)nn3cccc23)c1 [Compound 53b] ; retrieve measured pIC50. 6.00 to 7.00

====

System: ALK2 (Homo sapiens (Human)) | Read-out: IC50

Use the examples below as a reference point.
>>> print(df.to_string())
                                   compound                target_system  readout_label  endpoint_value
0  Cn1cnc(Nc2nc(N3CCCC3c3cccnc3)nc3ccoc23)c1 (stereo not shown) [Compound 11a]  ALK2 (Homo sapiens (Human))           IC50        < 100 nM
1  OC[C@@H]1CCCN1c1nc(Nc2cn(-c3ccccc3)cn2)c2sccc2n1 [Compound 16b]  ALK2 (Homo sapiens (Human))           IC50        < 100 nM
2  N#Cc1cccc(-n2cnc(Nc3nc(N4CCC[C@H]4CO)nn4cccc34)c2)c1 [Compound 119c]  ALK2 (Homo sapiens (Human))           IC50        < 100 nM

From here, focus on the item given below.
Requested read-out: IC50. Entry: NC(=O)[C@@H]1CCCN1c1nc(Nc2cn(-c3ccc4c(c3)OCO4)cn2)c2ccsc2n1 [Compound 429a] 100 to 1000 nM

====

// ALK2 (Homo sapiens (Human)) IC50 records

For the molecule shown here, COCCN1CCN(Cc2ccc3c(Nc4cn(-c5cc(OC)c(OC)c(OC)c5)cn4)nc(N4CCC[C@H]4CO)nn23)CC1 [Compound 114b] , give the reported IC50. < 100 nM

Input COc1cc(-n2cnc(Nc3nc(N4CCC[C@H]4C(N)=O)nc4cccnc34)c2)cc(OC)c1OC [Compound 161a] 100 to 1000 nM

====

// values below are IC50; system is ALK2 (Homo sapiens (Human), UniProt Q04771)
Sequence (Q04771 21-509): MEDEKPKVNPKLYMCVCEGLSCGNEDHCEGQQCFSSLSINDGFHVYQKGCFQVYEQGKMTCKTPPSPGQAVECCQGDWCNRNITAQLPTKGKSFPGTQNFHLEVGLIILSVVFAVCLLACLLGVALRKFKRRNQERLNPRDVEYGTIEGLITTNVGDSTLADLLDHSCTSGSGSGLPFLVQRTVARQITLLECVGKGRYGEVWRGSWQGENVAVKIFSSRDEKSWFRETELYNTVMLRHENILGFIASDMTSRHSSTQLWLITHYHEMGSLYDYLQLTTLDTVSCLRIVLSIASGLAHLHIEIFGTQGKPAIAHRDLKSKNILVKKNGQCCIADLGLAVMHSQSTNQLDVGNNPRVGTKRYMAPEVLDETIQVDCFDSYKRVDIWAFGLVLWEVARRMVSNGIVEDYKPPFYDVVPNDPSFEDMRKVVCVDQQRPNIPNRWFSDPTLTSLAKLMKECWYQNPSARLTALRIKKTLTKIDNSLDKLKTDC

>>> print(df.to_string())
                                   compound                             target_system  endpoint_value
0  COc1cc(-n2cnc(Nc3nc(N4CCN(C)CC4)nc4ccoc34)c2)cc(OC)c1OC [Compound 235a]  ALK2 (Homo sapiens (Human), UniProt Q04771)        < 100 nM
1  COc1cc(-n2cnc(Nc3nc(N4[C@H](CO)C[C@H]5C[C@H]54)nc4c3CCC4)c2)cc(OC)c1OC [Compound 396a]  ALK2 (Homo sapiens (Human), UniProt Q04771)        < 100 nM
2  COc1cc(F)c(CC(=O)N2CCN(c3nc(Nc4cn(-c5ccccc5)cn4)c4cccn4n3)CC2)c(F)c1 [Compound 52a]  ALK2 (Homo sapiens (Human), UniProt Q04771)  100 to 1000 nM
3  COc1cc(-n2cnc(Nc3nc(N4CCC[C@H]4CO)nc4sccc34)c2)cc(OC)c1OC [Compound 84b]  ALK2 (Homo sapiens (Human), UniProt Q04771)        < 100 nM
4  CCN(CCO)c1nc(Nc2cn(-c3ccccc3)cn2)c2ccsc2n1 [Compound 62b]  ALK2 (Homo sapiens (Human), UniProt Q04771)  100 to 1000 nM

Lab request: please report IC50 under test system ALK2 (Homo sapiens (Human), UniProt Q04771) for COc1cc(OC)cc(-n2cnc(Nc3nc(N4CCC[C@H]4CO)nn4cccc34)c2)c1 [Compound 72c] < 100 nM

====

Observed IC50, system ALK2 (Homo sapiens (Human)).

Look over these answered cases.
                                   compound                target_system  endpoint_value
0  COc1cc(-n2cnc(Nc3ncc4c(n3)CN(Cc3ccccc3)CC4)c2)cc(OC)c1OC [Compound 202b]  ALK2 (Homo sapiens (Human))        < 100 nM
1  COc1cc(-n2cnc(Nc3nc(N4CCC[C@H]4C(N)=O)nc4c3ncn4C)c2)cc(OC)c1OC [Compound 387a]  ALK2 (Homo sapiens (Human))        < 100 nM
2  COc1cc(-n2cnc(Nc3nc(N4CCCCC4)c4ccc(CN5CCCC5)cc4n3)c2)cc(OC)c1OC [Compound 409e]  ALK2 (Homo sapiens (Human))        < 100 nM
3  COc1cc(-n2cnc(Nc3nc(N4CCC[C@H]4CO)c4c(ncn4C)n3)c2)cc(OC)c1OC [Compound 389c]  ALK2 (Homo sapiens (Human))        < 100 nM
4  COc1cc(-n2cnc(Nc3nc(N4CCC[C@H]4C(N)=O)nc4cnn(C)c34)c2)cc(OC)c1OC [Compound 253c]  ALK2 (Homo sapiens (Human))       > 1000 nM

Entry c1ccc([C@@H]2CCCN2c2nc(Nc3cn(C4CCCCC4)cn3)c3cccn3n2)cc1 [Compound 46a] : reported IC50 = ? 100 to 1000 nM

Moving on to the next compound: COc1cc(-n2cnc(Nc3nc(N4CCC[C@H]4CO)nc4c3CNC4)c2)cc(OC)c1OC [Compound 365b] < 100 nM

Same question, COc1cc(-n2cnc(Nc3nc(N4CCC[C@@H]4CO)nc4c3CN(C(C)C)C4=O)c2)cc(OC)c1OC [Compound 275a] this time < 100 nM

====

- TARGET_SYSTEM: UniProt Q04771
READOUT_LABEL: IC50

Field: example entries. Status: answers known.
                                   compound  readout_label  endpoint_value
0  COc1cc(-c2ccc(Nc3nc(N4CCC[C@H]4C(N)=O)nc4ccccc34)nc2)cc(OC)c1OC [Compound 371a]           IC50       > 1000 nM
1  COc1cc(-n2cnc(Nc3nc(N4CCC[C@H]4C(C)(C)O)c4cccn4n3)c2)cc(OC)c1OC [Compound 222b]           IC50        < 100 nM
2  O=C1OCc2ccc(-n3cnc(Nc4nc(N5CCC[C@H]5CO)nn5cccc45)c3)cc21 [Compound 469g]           IC50  100 to 1000 nM
3  COc1cc(-n2cnc(Nc3nc4c(c(N5CCC[C@H]5CO)n3)CN(C(=O)OC(C)(C)C)CC4)c2)cc(OC)c1OC [Compound 181c]           IC50        < 100 nM
4  OCc1cccc(-n2cnc(Nc3nc(N4CCC[C@H]4CO)nn4cccc34)c2)c1 [Compound 434e]           IC50        < 100 nM
5  COc1cc(-n2cnc(Nc3nc(N4CCC[C@H]4CO)c4ccc(-c5cccc(N)c5)cc4n3)c2)cc(OC)c1OC [Compound 361c]           IC50        < 100 nM

Which IC50 value is on record for OC[C@@H]1CCCN1c1nc(Nc2cn([C@H]3CC[C@H](O)CC3)cn2)c2cccn2n1 [Compound 470e] ? 100 to 1000 nM

Now the compound CCn1nc(C)c2c(N3CCC[C@H]3CO)nc(Nc3cn(-c4cc(OC)c(OC)c(OC)c4)cn3)nc21 [Compound 458c] < 100 nM
